Give measured melting point for each item. Keep answers brief.

Compound	melting point
O=C(c1ccccc1F)c1cc(Cl)ccc1CSc1ccccc1	81 to 82 °C
CC(C)OC1(c2ccc(Cl)cc2)OC(c2ccncc2)=Nc2ccccc21 (stereo not drawn)	114 to 115 °C

We next turn to a different compound, shown below.
Kindly note the recorded melting point for Fc1ccc2[nH]cc(C3=CCN(CC4COc5ccc6ncccc6c5O4)CC3)c2c1 (stereo not drawn) , which is 184 °C

---

Measurement Type: melting point

Record excerpt, results attached:
Compound	melting point
CC(C)(C)NC(=O)/C=C/c1ccc(C(=O)c2c(-c3ccc(O)cc3)sc3cc(O)ccc23)cc1	187 to 190 °C
Cc1cccc(-c2[nH]nnc2-c2ccc3c(c2)NC(=O)CO3)n1	224 °C
CC1=CC2=C(C)C3(CC3)C(C)(O)C(=O)C2=C1 (configuration not stated)	138 to 140 °C
N#Cc1c(NC2CCCCC2)cccc1-c1ccccc1	125 to 126 °C
O=c1nc(-c2cccc(CN3CCCCC3)n2)sc2ccccc12	162 to 163 °C

Dear colleague, could you please provide melting point for the compounds listed below?
1. O=c1c(CO)cc(-c2ccc3c(c2)CCO3)nn1CC1CC1
2. COC(=O)c1nc(Oc2ccccc2)c(Cl)c(N)c1Cl
3. COc1ccc2[nH]cc(C3=C(c4c[nH]c5ccc(OC)cc45)C(=O)N(C)C3=O)c2c1
4. Cc1ccc(SCC(=O)c2cc(O)c(O)c([N+](=O)[O-])c2)cc1
5. CN(C)c1ccc2nnc(C(=O)O)c(O)c2c1

1: 115 to 117 °C; 2: 88 to 90 °C; 3: > 290 °C; 4: 115 to 116 °C; 5: > 330 °C

Dear colleague, could you please provide melting point for the compounds listed below?
1. COC(=O)c1snnc1C1CC1
2. O=C(Nc1ccccc1Nc1ccccc1)N[C@@H](Cc1ccc(NC(=O)c2c(Cl)cccc2Cl)cc1)C(=O)O
3. CN1c2ccc(C=O)cc2CCC1c1ccccc1 (configuration not stated)
4. COc1ccc(/C=C/C(=O)Nc2ccc(C(=O)O)cc2)cc1OC

1: 47 °C; 2: 174 °C; 3: 86 to 89 °C; 4: 258 to 259 °C

Dear colleague, could you please provide melting point for the compounds listed below?
1. O=Cc1csc(NC(=O)OCC(Cl)(Cl)Cl)n1
2. O=C(NCc1ccc(Cl)cc1)c1nn(-c2ccccc2)c2sc(CN3CCOCC3)cc2c1=O

1: 188 to 190 °C; 2: 182 to 184 °C

Kindly note the recorded melting point for NC(c1ccccc1)c1ccc(OCCCCOc2ccc(C(N)c3ccccc3)cc2)cc1 (configuration not stated) , which is 120 to 123 °C

---

Give measured melting point for each item. Keep answers brief.
Numbers only, in °C.

Molecule	Assay Value
CCCCCCOc1ccc(C=[N+]([O-])CCC)cc1	45

We next turn to a different molecule, shown below.
Kindly note the recorded melting point for CC(=O)c1cc2c(C(C)=O)c(OCC3CO3)ccc2o1 (stereo not given) , which is 114

---

Give measured melting point for each item. Keep answers brief.

Molecule	melting point
CCC1C(=O)c2cc(OC)c(Cl)c(Cl)c2C1=O (configuration not stated)	153 to 154 °C
O=C1CC2(CC=CC2)CC(=O)N1	150 to 153 °C

Dear colleague, could you please provide melting point for the molecules listed below?
1. CCc1nnc(-c2ccc(OC)cc2)c(-c2ccc(OC)cc2)n1
2. N#Cc1cnn2c3c(c(C(=O)O)nc12)CCN3C1CCCCC1
3. Nc1cccc(-c2ccc(CCN3CCN(CCc4ccccc4)CC3)c3ccccc23)n1
4. CCOC(=O)C(NC(=O)CC(=O)C=Cc1ccccc1[N+](=O)[O-])C(C)C (configuration not stated)
5. CC(=O)NC[C@H]1CN(c2ccc(N3CCC(O)(CC#N)CC3)c(F)c2)C(=O)O1
6. CC(C)Oc1ccccc1-c1ccoc1C(=O)NNC(=O)c1ccc(O)c(C#N)c1

1: 73 to 75.5 °C; 2: 253 to 255 °C; 3: 80 to 105 °C; 4: 106 to 107 °C; 5: 162 to 164 °C; 6: 128 to 130 °C

---

Give measured melting point for each item. Keep answers brief.

Record excerpt, results attached:
Compound	Measurement Type	Assay Value
Clc1ccc2c(c1)c(-c1ccccc1)nn1cnnc21	melting point	189 to 190 °C
CC(C)OC(=O)N1CCC(c2ccc3oc(-c4ccc(S(C)(=O)=O)cc4F)nc3c2)CC1	melting point	151 to 156 °C
CC(C)(C)c1cc(C(=O)NCCc2cccc([N+](=O)[O-])c2)cc(C(C)(C)C)c1O	melting point	195 to 197 °C
Clc1ccc(-c2cc(Cl)nc(Cl)n2)cc1	melting point	130 to 132 °C
CCCCCCCCCCCCc1ccc(C#Cc2c3ccccc3c(C#Cc3ccc(CCCCCCCCCCCC)cc3)c3ccccc23)cc1	melting point	111 to 113 °C

Dear colleague, could you please provide melting point for the compounds listed below?
1. c1ccc(C2CCNC3=NCCCN32)cc1 (configuration not stated)
2. COc1ccc(CCNC[C@H](O)COc2ccc(-c3nc(Br)c[nH]3)cc2Cl)cc1OC

1: 177 to 179 °C; 2: 172 to 174 °C

Dear colleague, could you please provide melting point for the compounds listed below?
1. CN(C)C(=S)CCC(c1ccccc1)(c1ccccc1)c1ccccc1
2. N#Cc1cccc2c(C3CCCCC3)nccc12
3. COC(=O)c1cccc2nc(SCCCN3CCN(CC(=O)Nc4c(SC)cc(C)nc4SC)CC3)oc12
4. COC1=C(OC)C(=O)C(CCCCCCCCCCCCCCCCCC(=O)O)=C(C)C1=O
5. Cc1cccc(NC(=O)NCC(=O)N(CC(=O)Nc2cccc3cccnc23)c2ccccc2)c1

1: 114 to 116 °C; 2: 94.7 °C; 3: 76 to 79 °C; 4: 77 to 79 °C; 5: 170 °C

---

Measurement Type: melting point

Dear colleague, could you please provide melting point for the molecules listed below?
1. NS(=O)(=O)c1cccc(NC(=O)c2cnn3c(C(F)F)cc(-c4ccc(C(F)(F)F)cc4)nc23)c1
2. O=S(=O)(c1ccc(Cl)cc1)C(Cc1ccccn1)c1cc(F)ccc1F (stereo not drawn)
3. CC(=O)OCC1OC(n2cc(C(Cl)=CI)c(=O)[nH]c2=O)C(OC(C)=O)C1OC(C)=O (stereo not drawn)
4. Cc1oc(-c2ccccc2)nc1COc1cccc(CN(O)C(=O)N(C)O)c1
5. C[C@@H](Nc1ncnc2[nH]c(-c3cccc([N+](=O)[O-])c3)cc12)c1ccccc1
6. O=S(=O)(c1c(-c2ccc(Cl)cc2)[nH]c(Br)c1Br)C(F)(F)C(F)F

258 °C
105 to 107 °C
85 to 87 °C
62 to 64 °C
> 250 °C
138 to 141 °C

Dear colleague, could you please provide melting point for the molecules listed below?
1. O=C(CC(=O)c1ccc(C(F)(F)F)cc1[N+](=O)[O-])c1ccc([N+](=O)[O-])cc1
2. O=C(c1ccc(F)cc1)C1CCN(CCCN2c3cccc4cccc(c34)S2(=O)=O)CC1

139 to 140 °C
132 °C

---

Give measured melting point for each item. Keep answers brief.
Answers are plain numbers, in °C.

Compound	Measurement Type	Quantity Unit	Assay Value
CCn1cc(C(=O)O)c(=O)c2cc(F)c(N3CCC(NC)C3)nc21 (stereo not given)	melting point	°C	242

Kindly note the recorded melting point for `Cc1nc(N)c2c(=O)n(C)c(=O)n(C)c2n1` , which is 267

---

Give measured melting point for each item. Keep answers brief.

Dear colleague, could you please provide melting point for the compounds listed below?
1. CN1C(=O)CCC(C)(C)c2ccc(NC(=O)c3ccc(C(=O)O)cc3)cc21
2. CNC1=NS(=O)(=O)N=C1NCCSCc1nc[nH]c1C

1. > 250 °C
2. 98 to 110 °C

---

Measurement Type: melting point

Record excerpt, results attached:
CCCOc1ccc(S(C)(=O)=O)cc1C(=O)O 148 to 152 °C
COC(=O)CC(NC1CC1)=C(C(=O)OC)C(=O)C(F)(F)C(F)(F)F 32 to 34 °C

Dear colleague, could you please provide melting point for the molecules listed below?
1. N[C@@H](Cc1ccccc1)[C@@H](O)C(F)(F)C(=O)NCc1ccccc1
2. Cc1nc2c(OCc3c(Cl)ccc(N(C)C(=O)CNC=O)c3Cl)cccn2c1Br
3. N#Cc1onc(-c2ccccc2)c1-c1ccc(S(N)(=O)=O)cc1

128 to 130 °C
211 to 212 °C
218 to 219 °C

---

Give measured melting point for each item. Keep answers brief.

Molecule	Measurement Type	Assay Value
O=S(=O)(c1ccccc1)c1ncc(C(F)(F)F)cc1Cl	melting point	86 to 87 °C
CN(C)S(=O)(=O)c1cccc2cccc(O)c12	melting point	95 °C

Dear colleague, could you please provide melting point for the molecules listed below?
1. Cc1ccc(-c2cccc(/C=C/C(=O)Nc3ccc(C(O)c4ccccn4)cc3)c2)cc1 (stereo unspecified)
2. Cc1cn(-c2ccc3nc(NC(=O)c4ccc(C(C)(C)C)cc4)cn3n2)c(C)n1
3. Cc1cc(Cl)nnc1NN
4. Nc1nc2ccc(NC(=O)CNC(=O)[C@@H](Cc3ccccc3)NS(=O)(=O)Cc3ccccc3)cc2s1
5. CCCCCCCCCCCC(=O)OC1C(C)C(c2ccccc2)NC(c2ccccc2)C1C (stereo unspecified)
6. CC(C)N[C@H](C(=O)NCCCC(c1ccc(F)cc1)c1ccc(F)cc1)C(C)C

1: 162 to 165 °C; 2: 254 to 255 °C; 3: 191 to 192 °C; 4: 127 to 130 °C; 5: 74 to 76 °C; 6: 72 to 80 °C

Dear colleague, could you please provide melting point for the molecules listed below?
1. CC(C)(C)OC(=O)Nc1ccc(I)cc1NC(=O)CC(=O)c1cccc(C#N)c1
2. Cc1ccc(C(=O)[C@H]2C[C@H]2C(=O)O)cc1 (relative stereo)
3. CCNc1nc(-c2cccc([N+](=O)[O-])c2)c2cc(OC)c(OC)cc2n1
4. COc1ccc(-n2c(=O)cc(C)c3c(=O)n(-c4ccccc4)[nH]c32)cc1
5. CC1COCc2nc3c(N)nc4cc(C=CC(=O)N(C)C)ccc4c3n21 (stereo unspecified)
6. CC(=O)N1CCn2c(c(C3=C(c4cn(C)c5ccccc45)C(=O)NC3=O)c3ccccc32)C1
7. COc1ccc(-c2nnc3c4ccccc4c(O)nn23)cc1
8. Clc1ccc(Oc2ccc(N3CCNCC3)nc2)cc1

182 to 183 °C
165 to 166 °C
164 to 166 °C
189 to 190 °C
> 250 °C
308 to 310 °C
307 to 309 °C
98 to 100 °C
